Just for reference, the RNAGym collection of RNA variant scans (doi:10.7554/elife.80360) is where these values come from.

B1: CPEB3 Ribozyme (parent)
chain: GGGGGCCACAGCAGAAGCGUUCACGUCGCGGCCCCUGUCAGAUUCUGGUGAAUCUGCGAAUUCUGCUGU

- Variants of: B1
- Procedure text: self-cleavage, relative activity (ratio to wild type); higher = more cleavage; co-transcriptional
self-cleavage class ranges: range 1 (below 0.4), range 2 (0.4 to below 0.7), range 3 (0.7 or more)

Request: Tag the class for GGGGGCCACAGCAGAAGCGUUCACGUCGCGGUCCCUGUCAGAUUCUGCUGAAUCUGCGAAUUCUGCUGU [C32U G48C]
Response: range 3

Request: What do you have for GGGGGCCACAGCAGAAGCGUUCACGUCGCGGCCCCUGUCAAAUUCUGGUGAAUCCGCGAAUUCUGCUGU [G41A U55C] ?
Response: range 2

Request: What do you have for GUGGGCCACAGCAGAAGAGUUCACGUCGCGGCCCCUGUCAGAUUCUGGUGAAUCUGCGAAUUCUGCUGU [G2U C18A] ?
Response: range 1

Request: What do you have for GGGGGCCACAGCAGAAGCGUUCACGUCGCGGCCCCUUUCAGAUUCUGGUGAAUCUGCGAAAUCUGCUGU [G37U U61A] ?
Response: range 1

Request: What do you have for GGGGGCCACAGCAGAAGCGUUCACGUCGCGGCCCCUGUCAGAUUCUGGUGAAGCUGCGAAUUCUGGUGU [U53G C66G] ?
Response: range 2

Request: What do you have for GGGGGCCACAGCAGAAGCGUUCACCUCGCGGCCCCUUUCAGAUUCUGGUGAAUCUGCGAAUUCUGCUGU [G25C G37U] ?
Response: range 1

Request: What do you have for GCGGGCCACAGCAGAAGCGUUCACGUCGCGGCCCCUGUCAGCUUCUGGUGAAUCUGCGAAUUCUGCUGU [G2C A42C] ?
Response: range 1

Request: What do you have for GGGGGCCACGGCAGAAGCGUUCACGUCGCGGCCCCUGUCAAAUUCUGGUGAAUCUGCGAAUUCUGCUGU [A10G G41A] ?
Response: range 1

Request: What do you have for GGGGGCCACAGCAGAAGCGUUCACGUCGCGGCCCCCGUCAGAUUUUGGUGAAUCUGCGAAUUCUGCUGU [U36C C45U] ?
Response: range 3

Request: What do you have for GGGGGCCACAGCAGAAGCGUUCACGUAGCGGCCCCUGUCAGAUUCUGAUGAAUCUGCGAAUUCUGCUGU [C27A G48A] ?
Response: range 3
